# TESTED_TARGET: Amine oxidase [flavin-containing] B (Homo sapiens)
# Sequence (P27338 whole entry): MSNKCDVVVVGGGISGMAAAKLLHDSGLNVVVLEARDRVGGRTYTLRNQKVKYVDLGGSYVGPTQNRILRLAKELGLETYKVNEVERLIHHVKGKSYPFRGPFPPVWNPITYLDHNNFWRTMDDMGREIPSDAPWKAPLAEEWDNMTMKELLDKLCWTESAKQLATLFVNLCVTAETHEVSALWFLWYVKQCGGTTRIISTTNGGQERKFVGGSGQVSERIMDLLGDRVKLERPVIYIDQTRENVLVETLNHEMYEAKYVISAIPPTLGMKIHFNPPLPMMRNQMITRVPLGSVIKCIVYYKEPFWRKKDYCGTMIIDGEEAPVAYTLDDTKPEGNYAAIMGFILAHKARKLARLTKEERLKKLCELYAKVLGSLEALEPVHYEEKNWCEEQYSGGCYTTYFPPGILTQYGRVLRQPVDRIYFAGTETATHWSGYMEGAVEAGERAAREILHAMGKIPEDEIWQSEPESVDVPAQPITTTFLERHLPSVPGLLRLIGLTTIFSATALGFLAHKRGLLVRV
pIC50: −log10 of the molar value.
ASSAY_ENDPOINT: pIC50

> print(dat)
                           molecular.string  assay.endpoint  reported.result
1          COCc1cccc(NC(=O)c2cc3sccc3n2C)c1           pIC50             4.25
2  CN1CCC(Oc2ccc(OCc3cccc(NC(=O)c4cc5sccc5n4C)c3)cc2)CC1           pIC50             5.12

###

# TESTED_TARGET: LSD1/CoREST complex (Homo sapiens)
pIC50: −log10 of the molar value.
ASSAY_ENDPOINT: pIC50

> print(dat)
                           molecular.string  relational.operator  reported.result
1         Cn1c(C(=O)Nc2cccc(Cl)c2)cc2sccc21                    =             4.73
2       CN(C)Cc1cccc(NC(=O)c2cc3sccc3n2C)c1                    =             4.78
3           COc1cccc(NC(=O)c2cc3sccc3n2C)c1                    =             4.58
4  Cn1c(C(=O)Nc2cccc(COc3ccccc3)c2)cc2sccc21                    <             4.00
5             Cn1c(C(=O)Nc2ccccc2)nc2sccc21                    <             4.00

###

# TESTED_TARGET: LSD1/CoREST complex (Homo sapiens)
# TEST_PROTOCOL: Inhibition of recombinant human KDM1A/CoREST complex expressed in Escherichia coli using biotinylated H3K4me1 peptide as substrate preincubated for 10 mins with enzyme followed by substrate addition measured after 1 hr by TR-FRET HTS assay
pIC50: −log10 of the molar value.
# key: entry, value: pIC50
ASSAY_ENDPOINT: pIC50

> print(dat)
                           molecular.string  reported.result
1         CC(=O)c1ccc(CN2CCC3(CCNCC3)C2)cc1             5.30
2  Cc1oc(-c2ccc(Cl)cc2[N+](=O)[O-])cc1C(=O)Nc1ccccc1             5.46
3  Cc1nc(-n2nc(-c3cccs3)cc2NC(=O)COc2ccccc2F)[nH]c(=O)c1C             6.12

###

The following are reported IC50 results, target or system LSD1/CoREST complex (Homo sapiens, UniProt O60341).
ASSAY_ENDPOINT: IC50

> print(dat)
                            molecular.string   reported.result
 1           NCCn1c(C(=O)Nc2ccccc2)cc2sccc21           48.1 µM
 2  CN1CCC(Oc2ccc(OCc3cccc(NC(=O)c4cc5sccc5n4C)c3)cc2)CC1  0.44 to 0.442 µM
 3             Cn1c(C(=O)Nc2ccncc2)cc2sccc21          > 100 µM
 4     CN(C)Cc1c(C(=O)Nc2ccccc2)n(C)c2ccsc12          > 100 µM
 5           CCCn1c(C(=O)Nc2ccccc2)cc2sccc21           53.2 µM
 6             Cn1c(C(=O)Nc2ncccn2)cc2sccc21          > 100 µM
 7          Cn1cnc2[nH]c(C(=O)Nc3ccccc3)cc21          > 100 µM
 8  O=C(Nc1ccccc1)c1cc2sccc2n1S(=O)(=O)c1ccccc1          > 100 µM
 9             Cn1c(C(=O)Nc2ccccc2)cc2sccc21           25.7 µM
10     Cn1c(C(=O)Nc2cccc(C(N)=O)c2)cc2sccc21           97.3 µM
11  Cn1c(C(=O)Nc2cccc(COc3ccc(OC4CCNCC4)cc3)c2)cc2sccc21  0.16 to 0.162 µM
12            Cn1ccc2c1cc(C(=O)Nc1ccccc1)n2C          > 100 µM
13          Cn1c(C(=O)Nc2ccccc2)cc2sc(F)cc21          > 100 µM
14       Cn1c(C(=O)Nc2ccccc2)c(I)c2sc(I)cc21          > 100 µM
15         Cc1sc2cc(C(=O)Nc3ccccc3)n(C)c2c1C          > 100 µM
16            CCn1c(C(=O)Nc2ccccc2)cc2sccc21            9.3 µM
17             Cn1c(C(=O)Nc2ccccc2)cc2scnc21          > 100 µM
18             Cn1c(C(=O)Nc2ccccc2)cc2occc21           89.5 µM
19          Cc1cc2c(cc(C(=O)Nc3ccccc3)n2C)s1          > 100 µM
20            Cn1cnc2c1cc(C(=O)Nc1ccccc1)n2C          > 100 µM
21       O=C(Nc1ccccc1)c1cc2sccc2n1-c1ccccc1          > 100 µM
22          Cn1c(C(=O)Nc2ccccc2)c(I)c2sccc21          > 100 µM
23          Cn1c(C(=O)Nc2cccc(F)c2)cc2sccc21           22.2 µM
24             Cn1c(C(=O)Nc2ccccn2)cc2sccc21          > 100 µM
25          Cc1csc2cc(C(=O)Nc3ccccc3)n(C)c12          > 100 µM
26        COCc1c(C(=O)Nc2ccccc2)n(C)c2ccsc12          > 100 µM
27         Cn1c(C(=O)Nc2cccc(CO)c2)cc2sccc21           52.3 µM
28         Cn1c(C(=O)Nc2cccc(Br)c2)cc2sccc21          > 100 µM
29     CN(C)Cc1cc2c(cc(C(=O)Nc3ccccc3)n2C)s1          > 100 µM
30          Cc1c(C(=O)Nc2ccccc2)n(C)c2ccsc12          > 100 µM
31          CSCc1cccc(NC(=O)c2cc3sccc3n2C)c1            7.4 µM
32  CN1CCN(c2cccc(NC(=O)c3cc4sccc4n3C)c2)CC1           21.5 µM
33             O=C(Nc1ccccc1)c1cc2sccc2[nH]1          > 100 µM
34  Cn1c(C(=O)Nc2cccc(COc3ccncc3)c2)cc2sccc21            9.4 µM
35             Cn1c(C(=O)Nc2cccnc2)cc2sccc21           61.5 µM
36         Cn1c(C(=O)Nc2ccccc2)c(Cl)c2sccc21          > 100 µM
37  Cn1c(C(=O)Nc2cccc(COc3ccc(O)cc3)c2)cc2sccc21           25.2 µM
38  Cn1c(C(=O)Nc2cccc(CN3CCOCC3)c2)cc2sccc21           11.1 µM
39         Cn1c(C(=O)Nc2ccccc2)cc2sc(Br)cc21          > 100 µM
40                O=C(Nc1ccccc1)c1cc2sccc2s1          > 100 µM
41  Cn1c(C(=O)Nc2cccc(Oc3ccncc3)c2)cc2sccc21           89.9 µM
42        CN(C)c1cccc(NC(=O)c2cc3sccc3n2C)c1           29.6 µM
43         CC(=O)c1ccc(CN2CCC3(CCNCC3)C2)cc1            8.1 µM
44  Cn1c(C(=O)Nc2cccc(OCc3ccncc3)c2)cc2sccc21            7.2 µM
45  CN1CCC(COc2cccc(NC(=O)c3cc4sccc4n3C)c2)CC1            2.2 µM
46             Cn1c(C(=O)Nc2ccccc2)cc2ncsc21          > 100 µM
47          Cn1ncc2cc(C(=O)Nc3ccccc3)n(C)c21          > 100 µM
48             Cn1c(C(=O)Nc2ccccc2)cc2ccsc21           38.8 µM
49          Cn1c(C(=O)Nc2ccccc2)cc2sc(I)cc21          > 100 µM
50             Cn1c(C(=O)Nc2ccncn2)cc2sccc21          > 100 µM
51               O=C(Nc1ccccc1)c1ccc2sccc2c1          > 100 µM
